assay: reconstitution / dissolution of the formulation in aqueous solvents; format: physicochemical; conditions: 0.9% w/v saline, saline or isotonic, thermodynamic from solid; read-out: solubility (concentration dissolved)
Recorded Endpoint: solubility

In: Please report the recorded solubility for CC(C)C[C@H](NC(=O)[C@H](Cc1ccccc1)NC(=O)c1cnccn1)B(O)O .
Out: < 1000 µg/mL

Data credit: patent US7109323B2
